- assay_text: Acute toxicity (LD50) on intraperitoneal injection into mice
- condition: mouse, in vivo, ip, read-out: acute toxicity (LD₅₀)
quantity: LD50

# LD50 lookup, item CC(C)OC(=O)CNC(=O)[C@H](CS)NC(=O)CC[C@H](N)C(=O)O [Glutathione monoisopropyl ester]
~5300 mg/kg

Hey, just so you know, these numbers are from patent EP0257992A2.
